- experiment-description: Ratio of drug concentration in heart to plasma of CD-1 mouse at 10 mg/kg, po measured for 24 hrs by LC-MS/MS analysis
- Format: ADME, organism-based
- particulars: heart and plasma
measured-property: Kp at 24 h

A. COc1cc(OC(F)F)c2nc3c(n2c1)C[C@@H](C(C)(C)C)c1cc(C(=O)O)c(=O)[nH]c1-3
B. CC(C)(C)[C@@H]1Cc2c(nc3c(C(F)(F)F)cc(C4CC4)cn23)-c2[nH]c(=O)c(C(=O)O)cc21
Query :: Select the item whose Kp at 24 h value is smaller, choosing between A and B . Selection: enter the item's label.
Result :: B
(B: 0.2, A: 0.3)

----------
- experiment-description: Metabolic stability in Beagle dog liver microsomes assessed as clearance at 0.3 uM preincubated for 5 mins followed by NADPH addition measured upto 60 mins by LC-MS/MS analysis
- Assay type: ADME, Canis lupus familiaris, Microsome
- particulars: read-out: CLH
Below is a list of entries, each paired with its recorded microsomal CLint at 0.3 µM value.
# number only, unit µL/min/mg dropped from output

COc1cc(OC(F)F)c2nc3c(n2c1)C[C@@H](C(C)(C)C)c1cc(C(=O)O)c(=O)[nH]c1-3 | 6

Now look at this one.
Query :: Give the measured microsomal CLint at 0.3 µM of `COCCCOc1cc2c(nc1OC)-c1cc(=O)c(C(=O)O)cn1[C@H](C(C)C)C2` .
Result :: 4

----------
- experiment-description: Total Cmax in Beagle dog at 45 mg/kg, po qd measured after 60 days
- Assay type: ADME, organism-based, Canis lupus familiaris
- particulars: in vivo, time 60 day
measured-property: Cmax (ng/mL)
# number only, unit ng/mL dropped from output

Query :: Give the measured Cmax of `COc1cc(OC(F)F)c2nc3c(n2c1)C[C@@H](C(C)(C)C)c1cc(C(=O)O)c(=O)[nH]c1-3` .
Result :: 17800

----------
- experiment-description: Oral bioavailability in CD-1 mouse at 10 mg/kg measured for 24 hrs by LC-MS/MS analysis
- Format: ADME, organism-based
- particulars: in vivo
measured-property: bioavailability (%)

COCCCOc1cc2c(nc1OC)-c1cc(=O)c(C(=O)O)cn1[C@H](C(C)C)C2 | 112

1. CC(C)(C)[C@@H]1Cc2c(nc3c(OC(F)F)cccn23)-c2[nH]c(=O)c(C(=O)O)c(O)c21
2. COCCCOc1cc2c(nc1OC)-c1[nH]c(=O)c(C(=O)O)c(O)c1[C@H](C(C)(C)C)C2
Query :: Between 1 and 2 , whose recorded bioavailability is greater? Selection: enter the item's label.
Result :: 2

----------
- experiment-description: Ratio of total drug concentration in liver to plasma in Sprague-Dawley rat at 10 mg/kg, po measured for 24 hrs by LC-MS/MS analysis
- Type: ADME, organism-based
- particulars: liver and plasma
measured-property: Kp at 24 h
Returns: the value as a bare number; no unit string appended.

Query :: Give the measured Kp at 24 h of `COCCCOc1cc2c(nc1OC)-c1cc(=O)c(C(=O)O)cn1[C@H](C(C)C)C2` .
Result :: 3

----------
- experiment-description: Total Cmax in Beagle dog at 15 mg/kg, po qd measured after 60 days
- Format: ADME, organism-based, Canis lupus familiaris
- particulars: in vivo, time 60 day
measured-property: Cmax (ng/mL)
# number only, unit ng/mL dropped from output

Query :: Give the measured Cmax of `COc1cc(OC(F)F)c2nc3c(n2c1)C[C@@H](C(C)(C)C)c1cc(C(=O)O)c(=O)[nH]c1-3` .
Result :: 13900

----------
- system-name: CYP3A4 (Homo sapiens, UniProt P08684)
- Sequence (P08684 whole entry): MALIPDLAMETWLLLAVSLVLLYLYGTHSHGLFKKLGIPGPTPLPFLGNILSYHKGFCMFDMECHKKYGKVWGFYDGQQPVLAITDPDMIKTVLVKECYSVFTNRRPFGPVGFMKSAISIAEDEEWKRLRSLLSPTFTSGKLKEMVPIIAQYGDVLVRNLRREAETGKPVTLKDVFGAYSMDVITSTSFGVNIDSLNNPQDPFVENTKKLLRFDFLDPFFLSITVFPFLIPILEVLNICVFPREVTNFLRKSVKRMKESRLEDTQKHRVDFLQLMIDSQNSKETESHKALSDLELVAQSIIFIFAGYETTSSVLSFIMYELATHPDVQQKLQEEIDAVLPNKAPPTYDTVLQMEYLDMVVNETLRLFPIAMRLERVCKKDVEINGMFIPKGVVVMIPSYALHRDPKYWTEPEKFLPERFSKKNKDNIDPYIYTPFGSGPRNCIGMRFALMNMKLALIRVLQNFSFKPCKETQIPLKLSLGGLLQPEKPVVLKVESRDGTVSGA
- experiment-description: Inhibition of CYP3A4 in human liver microsomes using testosterone as substrate preincubated for 30 min followed by NADPH addition measured after 12 mins by LC-MS/MS analysis
- Type: ADME, Microsome
- particulars: human, liver microsomes, probe testosterone
measured-property: IC50 at 12 min

Query :: // fetch CYP3A4 (Homo sapiens, UniProt P08684) IC50 at 12 min for `COCCCOc1cc2c(nc1OC)-c1cc(=O)c(C(=O)O)cn1[C@H](C(C)C)C2`
Result :: > 25 µM

----------
- experiment-description: Ratio of total drug concentration in liver to plasma in CD-1 mouse at 10 mg/kg, po measured for 24 hrs by LC-MS/MS analysis
- Assay type: ADME, organism-based
- particulars: CD-1, mouse, liver and plasma
measured-property: Kp at 24 h

COc1cc(OC(F)F)c2nc3c(n2c1)C[C@@H](C(C)(C)C)c1cc(C(=O)O)c(=O)[nH]c1-3 | 184
CC(C)(C)[C@@H]1Cc2c(nc3c(C(F)(F)F)cc(C4CC4)cn23)-c2[nH]c(=O)c(C(=O)O)cc21 | 67
COc1ccn2c3c(nc2c1OC)-c1[nH]c(=O)c(C(=O)O)cc1[C@H](C(C)(C)C)C3 | 5
CC(C)(C)[C@@H]1Cc2c(nc3c(OC(F)F)cc(F)cn23)-c2[nH]c(=O)c(C(=O)O)cc21 | 194
CC(C)(C)[C@@H]1Cc2c(nc3c(OC(F)F)cccn23)-c2[nH]c(=O)c(C(=O)O)c(O)c21 | 308
COCCCOc1cc2c(nc1OC)-c1[nH]c(=O)c(C(=O)O)c(O)c1[C@H](C(C)(C)C)C2 | 1.3
COCCCOc1cc2c(nc1OC)-c1cc(=O)c(C(=O)O)cn1[C@H](C(C)C)C2 | 3

a. COc1ccn2c3c(nc2c1OC(F)F)-c1[nH]c(=O)c(C(=O)O)cc1[C@H](C(C)(C)C)C3
b. CC(C)(C)[C@@H]1Cc2c(nc3c(C(F)(F)F)cccn23)-c2[nH]c(=O)c(C(=O)O)cc21
Query :: Select the item whose Kp at 24 h value is smaller, choosing between a and b . Selection: enter the item's label.
Result :: a

----------
- system-name: UniProt P08684
- experiment-description: Inhibition of CYP3A4 in human liver microsomes using testosterone as substrate preincubated for 30 min followed by NADPH addition measured after 12 mins by LC-MS/MS analysis
- Type: ADME, Microsome
pIC50: −log10 of the molar value.
Below is a list of entries, each paired with its recorded pIC50 value.

COc1cc(OC(F)F)c2nc3c(n2c1)C[C@@H](C(C)(C)C)c1cc(C(=O)O)c(=O)[nH]c1-3 | < 4.60

Now look at this one.
Query :: Give the measured pIC50 of `CC(C)(C)[C@@H]1Cc2c(nc3c(C(F)(F)F)cc(C4CC4)cn23)-c2[nH]c(=O)c(C(=O)O)cc21` .
Result :: < 4.60

----------
- experiment-description: Ratio of drug concentration in kidney to plasma of Sprague-Dawley rat at 5 mg/kg, po measured for 24 hrs by LC-MS/MS analysis
- Format: ADME, organism-based
- particulars: kidney and plasma
measured-property: Kp at 24 h

a. CC(C)(C)[C@@H]1Cc2c(nc3c(C(F)(F)F)cc(C4CC4)cn23)-c2[nH]c(=O)c(C(=O)O)cc21
b. COc1cc(OC(F)F)c2nc3c(n2c1)C[C@@H](C(C)(C)C)c1cc(C(=O)O)c(=O)[nH]c1-3
Query :: Between a and b , whose recorded Kp at 24 h is greater? Selection: enter the item's label.
Result :: b
(b: 7.9, a: 0.9)

----------
- experiment-description: Metabolic stability in human liver microsomes assessed as clearance at 0.3 uM preincubated for 5 mins followed by NADPH addition measured upto 60 mins by LC-MS/MS analysis
- Type: ADME, Microsome
- particulars: time < 65 min, read-out: CLH
measured-property: microsomal CLint at 0.3 µM (µL/min/mg)

COc1cc(OC(F)F)c2nc3c(n2c1)C[C@@H](C(C)(C)C)c1cc(C(=O)O)c(=O)[nH]c1-3 | 4
CC(C)(C)[C@@H]1Cc2c(nc3c(C(F)(F)F)cccn23)-c2[nH]c(=O)c(C(=O)O)cc21 | 2
COc1cccn2c3c(nc12)-c1[nH]c(=O)c(C(=O)O)cc1[C@H](C(C)(C)C)C3 | 1
CC(C)(C)[C@@H]1Cc2c(nc3c(C(F)(F)F)cc(C4CC4)cn23)-c2[nH]c(=O)c(C(=O)O)cc21 | 1

P. Cn1c2c(cc(C(=O)O)c1=O)[C@H](C(C)(C)C)Cc1c-2nc2c(C(F)(F)F)cc(Cl)cn12
Q. CC(C)(C)[C@@H]1Cc2c(nc3c(OC(F)F)cc(F)cn23)-c2[nH]c(=O)c(C(=O)O)cc21
R. COc1ccn2c3c(nc2c1OC(F)F)-c1[nH]c(=O)c(C(=O)O)cc1[C@H](C(C)(C)C)C3
Query :: Form: Sort by [microsomal CLint at 0.3 µM] Order [ ascending ] Returns: the labels listed in the requested order.
Result :: Q, R, P
